- targetOfAssay: Adenosine receptor A2b (Homo sapiens) (UniProt P29275)
- Sequence (P29275 whole entry): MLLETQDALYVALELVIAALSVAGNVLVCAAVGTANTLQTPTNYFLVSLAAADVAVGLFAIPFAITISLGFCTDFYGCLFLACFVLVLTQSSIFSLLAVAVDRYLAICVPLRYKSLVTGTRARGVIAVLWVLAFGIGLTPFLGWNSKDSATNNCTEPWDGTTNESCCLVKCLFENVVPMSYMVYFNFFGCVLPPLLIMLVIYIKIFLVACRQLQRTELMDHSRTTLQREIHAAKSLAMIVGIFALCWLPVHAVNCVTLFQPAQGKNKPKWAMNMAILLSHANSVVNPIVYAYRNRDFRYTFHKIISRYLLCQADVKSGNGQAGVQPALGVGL
- assayOverview: Displacement of [3H]DPCPX from recombinant human adenosine A2B receptor expressed in HEK293 cells at 0.01 uM
quantityMeasured: inhibition (%)

>>> valueobserved("COc1cc(OCC(=O)NCc2ccc(Cl)cc2)ccc1-c1cc2c([nH]1)c(=O)n(C)c(=O)n2C")
11
>>> valueobserved("CCCn1c(=O)c2[nH]c(-c3ccc(OC(C(=O)Nc4ccc(F)cc4)c4ccccc4)cc3)cc2n(CCC)c1=O (configuration not stated)")
32
>>> valueobserved("CCCn1c(=O)c2[nH]c(-c3ccc(OCC(=O)Nc4ccc(F)cc4)cc3OC)cc2n(CCC)c1=O")
16
>>> valueobserved("O=C(COc1ccc(-c2cc3c([nH]2)c(=O)n(CC(F)(F)F)c(=O)n3CC(F)(F)F)cc1)Nc1ccc(Br)cc1")
29
>>> valueobserved("CCCn1c(=O)c2[nH]c(-c3ccc(N(C=O)CC(=O)Nc4ccc(F)cc4)cc3)cc2n(CCC)c1=O")
24
>>> valueobserved("CCCn1c(=O)c2[nH]c(-c3ccc(OCC(=O)O)cc3Cl)cc2n(CCC)c1=O")
14
>>> valueobserved("Cn1c(=O)c2[nH]c(-c3ccc(OCC(=O)NCc4ccncc4)cc3)cc2n(C)c1=O")
5
>>> valueobserved("CCCn1c(=O)c2[nH]c(-c3ccc(OCC(=O)Nc4ccc(Br)cc4)cc3OC)cc2n(CCC)c1=O")
18

A = CCCn1c(=O)c2[nH]c(-c3ccc(OCC(=O)Nc4ccccc4Cl)cc3)c(Cl)c2n(CCC)c1=O
B = O=C(COc1ccc(-c2cc3c([nH]2)c(=O)n(CC(F)(F)F)c(=O)n3CC(F)(F)F)cc1)Nc1ccccc1
Query: Which value of inhibition is greater, the one for A or the one for B ? Could you answer with the label of the item you picked?
Response: B
(B: 15%, A: 5%)

I = CCCn1c(=O)c2[nH]c(-c3ccc(OCC(=O)Nc4ccc(C)cc4)cc3)c(Cl)c2n(CCC)c1=O
II = COc1cc(-c2cc3c([nH]2)c(=O)n(C)c(=O)n3C)ccc1OCC(=O)NCc1ccc(Cl)cc1
III = CCOC(=O)c1ccc(NC(=O)COc2ccc(-c3cc4c([nH]3)c(=O)n(C)c(=O)n4C)cc2OC)cc1
IV = Cn1c(=O)c2[nH]c(-c3ccc(OCC(=O)Nc4nc5ccccc5[nH]4)cc3)cc2n(C)c1=O
Query: # sort list by recorded inhibition, greatest to least Answer by listing the labels in the order asked for.
Response: I, IV, III, II
